Assay: gradient 5% acetonitrile 3 min, to 50% in 2 min, to 85% in 15 min, held 3 min, 100 µL/min
Conditions: column: Zorbax Extend-C18 2.1 x 50 mm; eluents: water / acetonitrile, 0.1% formic acid
metricName: RP-LC retention time (s)

[[record]]
compound = "COc1ccccc1-c1noc(C2CCCN2C(=O)Nc2ccc3c(c2)OCCO3)n1 (stereo not given)"
metricname = "RP-LC retention time"
experimentalvalue = 762

[[record]]
compound = "CCc1nc(-c2ccc(-c3noc(COc4ccccc4)n3)cc2)cs1"
metricname = "RP-LC retention time"
experimentalvalue = 1290

[[record]]
compound = "Cc1c(C(=O)NC2CCS(=O)(=O)C2)nnn1-c1ccccc1F (stereo not given)"
metricname = "RP-LC retention time"
experimentalvalue = 656

[[record]]
compound = "Cc1nc(-c2ccc(N3CCN(C(=O)c4ccc(Cl)cc4)CC3)nc2)sc1C"
metricname = "RP-LC retention time"
experimentalvalue = 946

[[record]]
compound = "CCS(=O)(=O)Nc1ccc(C2(C(=O)NC(C)c3ccccc3)CCCCC2)cc1 (stereo not given)"
metricname = "RP-LC retention time"
experimentalvalue = 976

[[record]]
compound = "COc1ccc(NC(=O)Cn2nc3nc(N4CCCC(C)C4)ccn3c2=O)cc1Cl (stereo not given)"
metricname = "RP-LC retention time"
experimentalvalue = 717

[[record]]
compound = "CCOC(=O)c1nc(N2CCc3ccccc32)c2ccccc2n1"
metricname = "RP-LC retention time"
experimentalvalue = 935

[[record]]
compound = "CCOc1ccc(NC(=O)N2CCC(c3nc(C(=O)N4CCCC4)c(C)o3)CC2)cc1"
metricname = "RP-LC retention time"
experimentalvalue = 764

[[record]]
compound = "CCOC(=O)Nc1nc2c(s1)CN(S(=O)(=O)N(C)C)CC2"
metricname = "RP-LC retention time"
experimentalvalue = 670

[[record]]
compound = "COc1cccc(-c2noc(N3CCN(c4ccccn4)CC3)n2)c1OC"
metricname = "RP-LC retention time"
experimentalvalue = 645

[[record]]
compound = "CNC(=O)C1CCCN(c2nc3ncn(CC(=O)Nc4cccc(F)c4)c(=O)c3s2)C1 (stereo not given)"
metricname = "RP-LC retention time"
experimentalvalue = 645

[[record]]
compound = "COC(=O)C1=C(NC(=O)c2ccc(N3C(=O)CCC3=O)cc2)CCS1"
metricname = "RP-LC retention time"
experimentalvalue = 739

[[record]]
compound = "COc1ccc(OCC(=O)N2CCCC2c2nc(-c3ccccc3)no2)cc1 (stereo not given)"
metricname = "RP-LC retention time"
experimentalvalue = 930

[[record]]
compound = "CC(C)CN1C(=O)c2cccn2CC1C(=O)NCc1ccc2c(c1)OCO2 (stereo not given)"
metricname = "RP-LC retention time"
experimentalvalue = 676

[[record]]
compound = "Cn1c(N2CCN(C(=O)c3cccc(Br)c3)CC2)cc(=O)n(C)c1=O"
metricname = "RP-LC retention time"
experimentalvalue = 672

[[record]]
compound = "O=C(NCCN1CCc2ccccc2C1)C1CCCN(c2ncnc3c2nc2n3CCCCC2)C1 (stereo not given)"
metricname = "RP-LC retention time"
experimentalvalue = 622

[[record]]
compound = "CC(C)n1nnc2cc(C(=O)N(C)CC(=O)Nc3ccc(F)cc3F)ccc21"
metricname = "RP-LC retention time"
experimentalvalue = 744

[[record]]
compound = "Clc1ccc(Cl)c(-c2ccc(CNCc3ccccn3)o2)c1"
metricname = "RP-LC retention time"
experimentalvalue = 733

[[record]]
compound = "CC1=C(c2ccc(C)c(C)c2)S(=O)(=O)N=C1N1CCC(C(=O)NC(C)Cc2ccco2)CC1 (stereo not given)"
metricname = "RP-LC retention time"
experimentalvalue = 855

[[record]]
compound = "O=c1n(CC2CC2)nc2n1CCN(Cc1ccncc1)C2"
metricname = "RP-LC retention time"
experimentalvalue = 511


Ref: the METLIN SMRT retention time set (Domingo-Almenara et al. 2019)
